Source of measurements: ChEMBL document CHEMBL1139709

# assayedTarget: Acetylcholinesterase (Homo sapiens, UniProt P22303)
# Sequence (P22303 whole entry): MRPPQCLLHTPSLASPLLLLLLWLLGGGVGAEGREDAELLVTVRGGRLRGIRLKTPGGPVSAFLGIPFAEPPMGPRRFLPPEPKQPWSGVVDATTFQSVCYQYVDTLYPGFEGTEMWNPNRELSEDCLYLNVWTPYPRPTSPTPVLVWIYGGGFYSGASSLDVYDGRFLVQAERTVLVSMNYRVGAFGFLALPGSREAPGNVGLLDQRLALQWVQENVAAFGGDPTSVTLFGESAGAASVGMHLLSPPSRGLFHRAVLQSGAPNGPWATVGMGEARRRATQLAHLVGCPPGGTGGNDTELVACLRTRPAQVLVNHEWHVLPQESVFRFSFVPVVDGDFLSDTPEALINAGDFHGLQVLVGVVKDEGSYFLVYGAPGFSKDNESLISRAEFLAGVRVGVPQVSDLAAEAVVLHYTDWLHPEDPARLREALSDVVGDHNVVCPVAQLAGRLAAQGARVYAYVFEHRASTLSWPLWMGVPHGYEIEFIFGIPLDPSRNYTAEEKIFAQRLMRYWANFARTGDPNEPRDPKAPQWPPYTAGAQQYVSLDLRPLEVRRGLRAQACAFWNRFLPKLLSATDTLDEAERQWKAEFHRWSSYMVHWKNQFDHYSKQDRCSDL
# procedureText: Inhibition of AChE
# conditionDescription: read-out: IC50
pIC50: −log10 of the molar value.
experimentalReadout: pIC50

- COc1ccc2c(c1)c1ccncc1n2C: < 5.00
- COc1ccc2[nH]c3c(c2c1)CCNC3C (stereo not drawn) [ADRENOGLOMERULOTROPIN]: < 5.00
- COc1ccc2c(c1)c1cc[n+](C)c(C)c1n2C: < 5.00
- Cc1c2[nH]c3ccc(O)cc3c2cc[n+]1C: 6.00
- C[n+]1ccc2c(c1)[nH]c1ccc(O)cc12: 5.38
- COc1ccc2[nH]c3c[n+](C)ccc3c2c1: 5.66
- COc1ccc2c(c1)c1ccnc(C)c1n2C: 4.93
- COc1ccc2[nH]c3c(c2c1)CCNC3: < 5.00
- Cc1nccc2c3cc(O)ccc3n(C)c12: < 5.00
- Cn1c2ccc(O)cc2c2ccncc21: < 5.00
- COc1ccc2[nH]c3c(C)[n+](C)ccc3c2c1: 6.10
- Cc1nccc2c1[nH]c1ccc(O)cc12: < 5.00
- Oc1ccc2[nH]c3cnccc3c2c1: < 5.00

* * *

# assayedTarget: Acetylcholinesterase (Homo sapiens, UniProt P22303)
# procedureText: Inhibition of AChE
# conditionDescription: read-out: IC50
pIC50: −log10 of the molar value.
experimentalReadout: pIC50

* COc1ccc2c(c1)c1cc[n+](C)cc1n2C | 5.89
* Cc1c2c(cc[n+]1C)c1cc(O)ccc1n2C | 5.72
* Cn1c2ccc(O)cc2c2cc[n+](C)cc21 | 5.74
